Attribution: ChEMBL document CHEMBL1144264

biological target: Prostaglandin E2 receptor EP1 subtype (Homo sapiens)
Sequence (P34995 whole entry): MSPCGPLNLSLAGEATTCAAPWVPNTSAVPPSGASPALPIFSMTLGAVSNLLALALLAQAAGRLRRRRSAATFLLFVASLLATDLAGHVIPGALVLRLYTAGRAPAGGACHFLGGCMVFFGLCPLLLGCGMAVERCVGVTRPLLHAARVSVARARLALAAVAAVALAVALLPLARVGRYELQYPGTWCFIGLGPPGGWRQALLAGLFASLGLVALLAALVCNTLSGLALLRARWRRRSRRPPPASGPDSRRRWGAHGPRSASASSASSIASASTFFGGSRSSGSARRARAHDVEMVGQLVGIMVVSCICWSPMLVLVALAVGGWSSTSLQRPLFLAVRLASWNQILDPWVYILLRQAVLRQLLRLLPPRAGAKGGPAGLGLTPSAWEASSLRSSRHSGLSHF
The reader will find reported Ki values listed item by item below.
MEASURED_PARAMETER: Ki (µM)

• Cc1cccc(CCCc2ccccc2CCC(=O)O)c1OCc1ccccc1 = 23
• Cc1cccc(/C=C/Cc2ccccc2CC(=O)O)c1OCc1ccccc1.Cc1cccc(C/C=C/c2ccccc2CC(=O)O)c1OCc1ccccc1 = 21
• O=C(O)/C=C/c1ccccc1/C=C/c1ccccc1OCc1ccccc1 = 45
• Cc1cccc(/C=C/Cc2ccccc2/C=C/C(=O)O)c1OCc1c(Cl)cccc1Cl = 6.7
• Cc1cccc(/C=C/Cc2ccccc2/C=C/C(=O)O)c1OCc1ccc(F)cc1 = 17
• Cc1cccc(/C=C\Cc2ccccc2C(=O)O)c1OCc1ccccc1.Cc1cccc(C/C=C/c2ccccc2C(=O)O)c1OCc1ccccc1 = 16

----------
For UniProt P34995, measured Ki is reported for the entries below.
MEASURED_PARAMETER: Ki

• COc1ccc(/C=C/Cc2ccccc2/C=C/C(=O)O)cc1.COc1ccc(C/C=C/c2ccccc2/C=C/C(=O)O)cc1 = > 100 µM
• COc1cccc(CCCc2ccccc2/C=C/C(=O)O)c1OCc1ccccc1 = > 9 µM
• O=C(O)/C=C/c1ccccc1/C=C/Cc1ccccc1.O=C(O)/C=C/c1ccccc1C/C=C/c1ccccc1 = > 100 µM
